Origin of the recorded values: patent US9815842B2

Molecular target: C-domain of MALT1 (amino acids 329-824) (Homo sapiens (Human), UniProt Q9UDY8)
Sequence (Q9UDY8 329-824): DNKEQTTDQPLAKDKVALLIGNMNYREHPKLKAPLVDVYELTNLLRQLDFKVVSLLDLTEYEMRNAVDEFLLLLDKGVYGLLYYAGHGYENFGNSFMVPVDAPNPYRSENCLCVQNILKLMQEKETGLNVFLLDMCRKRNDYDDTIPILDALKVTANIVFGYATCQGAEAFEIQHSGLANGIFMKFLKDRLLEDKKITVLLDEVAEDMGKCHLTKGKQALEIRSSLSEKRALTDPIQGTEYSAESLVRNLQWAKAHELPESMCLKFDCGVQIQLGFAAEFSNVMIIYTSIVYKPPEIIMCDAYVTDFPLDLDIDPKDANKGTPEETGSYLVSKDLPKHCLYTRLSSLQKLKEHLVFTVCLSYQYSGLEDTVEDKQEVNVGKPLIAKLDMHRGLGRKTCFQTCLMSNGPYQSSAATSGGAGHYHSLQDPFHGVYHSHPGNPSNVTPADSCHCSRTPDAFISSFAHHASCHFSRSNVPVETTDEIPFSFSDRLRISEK
pIC50: −log10 of the molar value.
Criterion met means recorded pIC50 is 8 or above; Criterion not met means it is below 8.

[[record]]
compound = "COc1ncc(NC(=O)Nc2cnc3cc(Cl)nn3c2C(C)C)cc1Cl"
assigned_category = "Criterion met"

[[record]]
compound = "Cc1cc2ncc(NC(=O)Nc3cnc(-n4nccn4)c(Cl)c3)c(C3(C)CCCO3)n2n1 (centres unmarked)"
assigned_category = "Criterion met"

[[record]]
compound = "COc1ncc(NC(=O)Nc2cnc3cc(Cl)nn3c2C2C3COCC32)cc1Cl (centres unmarked)"
assigned_category = "Criterion not met"

[[record]]
compound = "COC[C@H](OC)c1c(NC(=O)Nc2cnc(-n3nccn3)c(Cl)c2)cnc2cc(Cl)nn12"
assigned_category = "Criterion met"

[[record]]
compound = "COCC(C)(OC)c1c(NC(=O)Nc2cnc(-n3nccn3)c(Cl)c2)cnc2cc(Cl)nn12 (centres unmarked)"
assigned_category = "Criterion met"

[[record]]
compound = "CC(C)c1c(NC(=O)Nc2cc(Cl)c(=O)n(C)c2-n2cccn2)cnc2cc(Cl)nn12"
assigned_category = "Criterion met"

[[record]]
compound = "CC(C)c1c(NC(=O)Nc2cnc(-n3cc(CN)cn3)c(Cl)c2)cnc2cc(Cl)nn12"
assigned_category = "Criterion not met"

[[record]]
compound = "CO[C@@H](C)c1c(NC(=O)Nc2cnc(-n3nccn3)c(C(F)F)c2)cnc2cc(Cl)nn12"
assigned_category = "Criterion met"

